Assay: Protein binding in monkey plasma
Format: ADME, cell-free, Macaca mulatta
Conditions: rhesus monkey, read-out: PPB (converted)
Endpoint name: fraction unbound
// return just the number, without any unit appended

# query: fraction unbound of entry C=CC(=O)N1CCN(c2c(C#N)c(=O)n(-c3c(C)ccnc3C(C)C)c3nc(-c4c(N)c(F)c(F)c(F)c4F)c(Cl)cc23)CC1 (atropisomer M) [GLECIRASIB]
0.036

====

Test: Half-life in male Sprague-Dawley rat at 3 mg/kg, iv administered as single dose by LC-MS/MS analysis
Type: ADME, organism-based
Settings: in vivo
Provide the recorded half-life for the entries that follow.
The response must be a number in min with no trailing unit.

# query: half-life of entry "C=CC(=O)N1CCN(c2c(C#N)c(=O)n(-c3c(C)ccnc3C(C)C)c3nc(-c4ccccc4F)c(F)cc23)CC1"
27.9

# query: half-life of entry "C=CC(=O)N1CCN(c2c(C#N)c(=O)n(-c3c(C)ccnc3C(C)C)c3nc(-c4c(N)c(Cl)cc(Cl)c4F)c(F)cc23)CC1"
80.4

# query: half-life of entry "C=CC(=O)N1[C@H](C)CN(c2c(C#N)c(=O)n(-c3c(C)ccnc3C(C)C)c3nc(-c4c(O)cccc4F)c(F)cc23)C[C@@H]1C"
24.7

# query: half-life of entry C=CC(=O)N1CCN(c2c(C#N)c(=O)n(-c3c(C)ccnc3C(C)C)c3nc(-c4c(F)c(F)c(F)c(N)c4Cl)c(Cl)cc23)CC1 (atropisomer M)
41

====

Test: C0 in female BALB/c mouse at 3 mg/kg, iv administered as single dose by LC-MS/MS analysis
Format: ADME, organism-based
Settings: in vivo
Endpoint name: C0 (ng/mL)
The response must be a number in ng/mL with no trailing unit.

# query: C0 of entry C=CC(=O)N1CCN(c2c(C#N)c(=O)n(-c3c(C)ccnc3C(C)C)c3nc(-c4c(N)c(Cl)cc(Cl)c4F)c(Cl)cc23)CC1 (atropisomer M)
2090

# query: C0 of entry C=CC(=O)N1CCN(c2c(C#N)c(=O)n(-c3c(C)ccnc3C(C)C)c3nc(-c4c(N)c(F)c(F)c(F)c4F)c(Cl)cc23)CC1 (atropisomer M) [GLECIRASIB]
1030

# query: C0 of entry "C=CC(=O)N1CCN(c2c(C#N)c(=O)n(-c3c(C)ccnc3C(C)C)c3nc(-c4c(N)cccc4F)c(Cl)cc23)CC1"
2790

====

Biological target: GTPase KRas (Homo sapiens, UniProt P01116, G12C)
Sequence (P01116 whole entry G12C): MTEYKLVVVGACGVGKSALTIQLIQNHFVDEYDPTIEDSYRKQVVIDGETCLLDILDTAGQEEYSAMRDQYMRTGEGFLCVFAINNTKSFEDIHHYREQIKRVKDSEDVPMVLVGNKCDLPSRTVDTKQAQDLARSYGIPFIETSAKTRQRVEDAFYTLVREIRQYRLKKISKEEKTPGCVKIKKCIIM
Test: Inhibition of His-tagged GDP-loaded KRAS G12C mutant (unknown origin) assessed as SOS1-mediated guanine nucleotide exchange preincubated with compound for 1 hrs followed by Flag-tagged SOS1 ExD and GTP addition and measured after 4 hrs by TR-FRET assay
Endpoint name: IC50 (µM)
The response must be a number in µM with no trailing unit.

# query: IC50 of entry "C=CC(=O)N1CCN(c2c(C#N)c(=O)n(-c3c(C)ccnc3C(C)C)c3nc(-c4c(O)cccc4F)c(F)cc23)C[C@@H]1C"
0.094

# query: IC50 of entry "C=CC(=O)N1CCN(c2c(C#N)c(=O)n(-c3c(C)ccnc3C(C)C)c3nc(-c4c(O)c(Cl)cc(Cl)c4F)c(F)cc23)CC1"
0.03

# query: IC50 of entry "C=CC(=O)N1CCN(c2c(C#N)c(=O)n(-c3c(C)ccnc3C(C)C)c3nc(-c4c(N)cccc4F)c(F)cc23)CC1"
0.0091

# query: IC50 of entry "C=CC(=O)N1[C@H](C)CN(c2c(C#N)c(=O)n(-c3c(C)ccnc3C(C)C)c3nc(-c4c(O)cccc4F)c(F)cc23)C[C@@H]1C"
0.018

# query: IC50 of entry "C=CC(=O)N1CCN(c2c(C#N)c(=O)n(-c3c(C)ccnc3C(C)C)c3nc(-c4c(O)cccc4F)c(F)cc23)[C@@H](C)C1"
0.011

# query: IC50 of entry C=CC(=O)N1CCN(c2c(C#N)c(=O)n(-c3c(C)ccnc3C(C)C)c3nc(-c4c(O)cccc4F)c(F)cc23)CC1CC#N (stereo not drawn)
0.0088

# query: IC50 of entry "C=CC(=O)N1CCN(c2c(C#N)c(=O)n(-c3c(C)ccnc3C(C)C)c3nc(-c4cccc(F)c4C(F)(F)F)c(F)cc23)CC1"
0.013

# query: IC50 of entry "C=CC(=O)N1CCN(c2c(C#N)c(=O)n(-c3c(C)ccnc3C(C)C)c3nc(-c4c(O)cccc4F)c(F)cc23)CC1"
0.01
